- procedure.summary: in vitro
- recorded.conditions: PAMPA
- Description: Permeability of the compound by PAMPA
// Papp lookup, one value per entry
Your answer is read as ×10⁻⁶ cm/s, so omit the unit and give the number.

Study these solved cases before continuing.
{"columns": ["cpd.smiles", "measured.value"],
 "data": [
  ["CC(=O)NCCCn1c(=O)c2cc(F)ccc2n2c(=S)[nH]nc12", 18],
  ["CC(C)(C)OC(=O)NCCCCCC(=O)NCCCn1c(=O)c2cc(F)ccc2n2c(=S)[nH]nc12", 405],
  ["O=C(NCCCn1c(=O)c2cc(F)ccc2n2c(=S)[nH]nc12)C1CCCC1", 155],
  ["CCn1c(=O)c2ccccc2n2c(=S)[nH]nc12", 427],
  ["O=c1c2cc(F)ccc2n2cnnc2n1CCc1ccccc1", 924]
]}

Exercise: What Papp value was documented for this compound, COc1cccc(CC(=O)NCCCn2c(=O)c3cc(F)ccc3n3c(=S)[nH]nc23)c1 ?
Solution: 300

Exercise: What Papp value was documented for this compound, Nc1nnc2n(CCc3ccccc3)c(=O)c3cc(F)ccc3n12 ?
Solution: 885

* * *

- procedure.summary: Aqueous solubility of compound
- Format: physicochemical
- recorded.conditions: buffer
measurement.kind: solubility

Study these solved cases before continuing.
{"columns": ["cpd.smiles", "measurement.kind", "measured.value"],
 "data": [
  ["N[C@@H](CCC(=O)O)C(=O)NCCOCCOCCOCCOCCC(=O)NCCCn1c(=O)c2cc(F)ccc2n2c(=S)[nH]nc12", "solubility", "> 99 µg/mL"],
  ["CC(C)(C)OC(=O)CC[C@H](N)C(=O)NCCCn1c(=O)c2cc(F)ccc2n2c(=S)[nH]nc12", "solubility", "37.5 µg/mL"],
  ["O=C(O)CCC(=O)NCCCn1c(=O)c2cc(F)ccc2n2c(=S)[nH]nc12", "solubility", "> 58 µg/mL"]
]}

Exercise: What solubility value was documented for this compound, O=C(CN1CCOCC1)NCCCn1c(=O)c2cc(F)ccc2n2c(=S)[nH]nc12 ?
Solution: > 62 µg/mL

Exercise: What solubility value was documented for this compound, CC(C)(C)OC(=O)CC[C@@H](NC(=O)OC(C)(C)C)C(=O)NCCCn1c(=O)c2cc(F)ccc2n2c(=S)[nH]nc12 ?
Solution: 20.4 µg/mL

Exercise: What solubility value was documented for this compound, O=c1c2cc(F)ccc2n2c(=S)[nH]nc2n1CCN1CCC(F)(F)CC1 ?
Solution: 20.2 µg/mL

Exercise: What solubility value was documented for this compound, O=C(Cc1cccc(F)c1)NCCCn1c(=O)c2cc(F)ccc2n2c(=S)[nH]nc12 ?
Solution: > 63 µg/mL

Exercise: What solubility value was documented for this compound, O=C(NCCCn1c(=O)c2cc(F)ccc2n2c(=S)[nH]nc12)C1CCOCC1 ?
Solution: < 1 µg/mL

Exercise: What solubility value was documented for this compound, O=C(CC1CCNCC1)NCCCn1c(=O)c2cc(F)ccc2n2c(=S)[nH]nc12 ?
Solution: 37.5 µg/mL

* * *

- procedure.summary: Aqueous solubility of compound
- Type: physicochemical
- recorded.conditions: buffer
// solubility lookup, one value per entry

Exercise: What solubility value was documented for this compound, CC(C)(C)OC(=O)CC[C@H](NC(=O)OC(C)(C)C)C(=O)NCCCn1c(=O)c2cc(F)ccc2n2c(=S)[nH]nc12 ?
Solution: 41.6 µg/mL

Exercise: What solubility value was documented for this compound, O=c1c2cc(F)ccc2n2c(=S)[nH]nc2n1CCP(=O)(O)O ?
Solution: > 51 µg/mL

Exercise: What solubility value was documented for this compound, O=c1c2cc(F)ccc2n2c(=S)[nH]nc2n1CCc1ccncc1 ?
Solution: 10.9 µg/mL

Exercise: What solubility value was documented for this compound, O=c1c2cc(I)ccc2n2c(=S)[nH]nc2n1CCc1ccccc1 ?
Solution: < 1 µg/mL

Exercise: What solubility value was documented for this compound, CC(C)(C)OC(=O)CC[C@H](N)C(=O)NCCOCCOCCOCCOCCC(=O)NCCCn1c(=O)c2cc(F)ccc2n2c(=S)[nH]nc12 ?
Solution: > 107 µg/mL

Exercise: What solubility value was documented for this compound, CC(C)(C)[C@H]1CC[C@H](C(=O)NCCCn2c(=O)c3cc(F)ccc3n3c(=S)[nH]nc23)CC1 ?
Solution: 1.1 µg/mL

Exercise: What solubility value was documented for this compound, CS(=O)(=O)NCCn1c(=O)c2cc(F)ccc2n2c(=S)[nH]nc12 ?
Solution: > 53 µg/mL
